# System: SK-MEL-2
# assay summary: NCI tumour cell line growth inhibition, 48 h
Active and inactive are the calls of the source. Cut-off read from the data, not from the text of the source: active = GI50 up to about 1.1 µM and inactive = higher.
Parameter: GI50. Scope: all listed entries.

Please review the following examples before continuing.
molecule | GI50
O=C1c2ccccc2-c2nnc(-c3ccccc3)cc21 | > 10 µM (inactive)
COC(=O)CCC(NC(=S)N/N=C(\C)c1nccs1)C(=O)OC (stereo not given) | > 100 µM (inactive)
Nc1nc(CCc2n[nH]c(N)n2)n[nH]1 | > 100 µM (inactive)
Cc1c2cc[n+](C)cc2c(C)c2c1[nH]c1ccc(OC(C)(C)C)cc12 | > 100 µM (inactive)

Proceed to the following item.
INPUT: Query (molecule): C[C@]12CC[C@H](O)CC1=CC[C@@H]1[C@@H]2CC[C@]2(C)C(=O)CC[C@@H]12 ; field requested: GI50
OUTPUT: > 100 µM (inactive)

* * *

# System: TK-10
# assay summary: NCI tumour cell line growth inhibition, 48 h
Active and inactive are the calls of the source. Rule as the data show it: active = GI50 up to about 1.1 µM and inactive = higher.
Listing of entries alongside the reported GI50.

Sample records with GI50:
compound | subject of test | measured result
COC(=O)C1=Cc2c(OC)cc(OC)c(OC)c2[C@H](c2cc(OC)c(OC)cc2OC)C1C(=O)OC (stereo not given in full) | TK-10 | > 100 µM (inactive)
CN(C)CC/C(=N\Nc1ccc(Cl)c(Cl)c1)c1ccccc1 | TK-10 | 1.98 µM (inactive)
Cc1ccc(S(=O)(=O)NC(=O)NC(CCC(N)=O)C(=O)O)cc1 (stereo not given) | TK-10 | > 100 µM (inactive)
CN1C2CCC1/C(=C/c1cccc3c1OCO3)C(=O)/C2=C\c1cccc2c1OCO2 | TK-10 | 21.3 µM (inactive)

Shift focus to the following entry.
INPUT: Suppose we examine the compound CCOC(=O)/C(SC#N)=C(/N)N1CCCC1 ; what GI50 value has been reported?
OUTPUT: > 100 µM (inactive)

* * *

Examples of compounds with documented GI50 follow.
# Tested on: SF-295
# assay summary: NCI tumour cell line growth inhibition, 48 h
Activity calls are given as the source filed them. No stated cut-off is given here; in the data, active = GI50 up to about 1.1 µM and inactive = higher.

Reference set, count: 3
compound | metric name | measured result
CC(=O)Oc1cc(/C=C/c2ccc(O)cc2)cc(OC(C)=O)c1 | GI50 | 28.8 µM (inactive)
CCCCCCCCCCCCCCCCCCNc1ccn(C2OC(COP(=O)(O)OCC3OC(n4ccc(N)nc4=O)C(O)C3O)C(O)C2O)c(=O)n1 (stereo not drawn) | GI50 | > 100 µM (inactive)
CC1=CC2(C)C=C[C@@H]1C(=O)[C@@]1(C)CC[C@@](O)(C(C)C)[C@H]1CC2 | GI50 | 16.7 µM (inactive)

INPUT: Suppose we examine the compound Clc1cc2ns[s+]c2cc1Cl ; what GI50 value has been reported?
OUTPUT: 47.1 µM (inactive)

INPUT: Which GI50 value is on record for COc1ccc(/C=C/C(=N/NC(=O)N/N=C(/C=C/c2ccc(OC)cc2)C(C)(C)CN2CCCCC2)C(C)(C)CN2CCCCC2)cc1 ?
OUTPUT: 1.87 µM (inactive)

INPUT: # input compound: C/C=C/C[C@@H](C)C(=O)C1C(=O)N[C@@H](C(C)C)C(=O)N(C)CC(=O)N(C)[C@@H](CC(C)C)C(=O)N[C@@H](C(C)C)C(=O)N(C)[C@@H](CC(C)C)C(=O)N[C@@H](C)C(=O)N[C@@H](C)C(=O)N(C)[C@@H](CC(C)C)C(=O)N(C)[C@@H](CC(C)C)C(=O)N(C)[C@@H](C(C)C)C(=O)N1C (stereo partly drawn) ; wanted: its GI50
OUTPUT: 7.28 µM (inactive)

INPUT: Look up GI50 for this compound: O=C1C(N2CCNCC2)=C(Cl)C(=O)c2ncccc21
OUTPUT: > 10 µM (inactive)

INPUT: Tell me the measured GI50 of O=C1CC2(CCC(O)(c3cccc4ccccc34)C(C(=O)c3cccc4ccccc34)C2)C(=O)c2ccccc2N1 (stereo not drawn) , please.
OUTPUT: 12.6 µM (inactive)

INPUT: GET /values?readout=GI50&item= Sc1ccccc1S
OUTPUT: > 100 µM (inactive)

INPUT: What value of measured GI50 is listed for COc1cccc2c1C(=O)c1c(O)c3c(c(O)c1C2=O)CC(O)(C(C)=O)CC3OC1CC([N+](C)(C)C)C(O)C(C)O1 (stereo not drawn) ?
OUTPUT: > 100 µM (inactive)

INPUT: Looking for the measured GI50 of O=C1/C(=C\c2cccc(Oc3ccccc3)c2)SC(c2ccccc2)N1c1cc(Cl)ccc1Cl (stereo not drawn) , can you help?
OUTPUT: 24.2 µM (inactive)

INPUT: State the recorded GI50 for this entry: CNC(=S)N/N=C(\C)c1nc2cccnc2[nH]1
OUTPUT: 30.3 µM (inactive)

INPUT: Can you look up the measured GI50 of CN(C)CC/C(=N\Nc1ccc(Cl)c(Cl)c1)c1ccccc1 for me?
OUTPUT: 1.9 µM (inactive)

INPUT: What measured GI50 goes with COCCOCN(C(=O)C1=CCC2(CC1)OCCO2)c1ccccc1I ?
OUTPUT: > 50 µM (inactive)

INPUT: Which GI50 is reported for this compound? CCCNC(=O)OCc1c(COC(=O)NCCC)c(-c2ccc(Cl)c(Cl)c2)n2c1CCC2
OUTPUT: 2.95 µM (inactive)

INPUT: Suppose we examine the compound C/C(=N\NC(=O)CC(=O)Nc1ccc(Cl)cc1)c1cc2ccccc2oc1=O ; what GI50 value has been reported?
OUTPUT: > 100 µM (inactive)

INPUT: Name the recorded GI50 for CC1(C)CC(=O)C(=CNc2nc(-c3ccccc3)cs2)C(=O)C1 .
OUTPUT: 57.9 µM (inactive)

INPUT: Give the measured GI50 of COc1ccc(N2C(=O)[C@@H]3[C@H](C2=O)c2[nH]c4ccccc4c2C2CCC(C(C)(C)C)C[C@@H]23)cc1 (stereo partly drawn) .
OUTPUT: 12.3 µM (inactive)

* * *

# Test system: HCT-116
# assay summary: NCI tumour cell line growth inhibition, 48 h
Calls of active or inactive are those of the source. No stated cut-off is given here; in the data, active = GI50 up to about 1.1 µM and inactive = higher. Starred links: 1 amine or outer side, 2 acyl side, 3 side chain; linkers in the order of their positions; H or OH if unused. Non-standard residues stand in square brackets, D forms with d. Residues, ends and D or L forms follow the SMILES beside them. *: point of attachment. X47 = CCC(=O)CC1CC(C)CC(C(=O)[*:2])N1[*:1]; X46 = CCCCCCCCC(C)C(=O)*; Aib = CC(C)(N)C(=O)O; X48 = CC(CN(C)CCO)N*
// one of active, inactive, no free text

A selection of reference data follows.
compound | classification
COc1cc(C(=C2SCCS2)c2nccc3cc(OC)c(OC)cc23)c([N+](=O)[O-])cc1OC | inactive
CN(C)c1nc(-c2ccccc2)c(C(=O)c2c[nH]c3ccccc23)s1 | inactive
CC1(C)NC(C)(C)/C(=N\O)C(=NO)/C1=N/O | inactive
Cc1ccc(-c2cc(-c3ccc(Cl)cc3)nc(/N=C3\C(=O)N(CN4CCOCC4)c4ccccc43)n2)cc1 | inactive
O=C1C(=C2CCCC2)CCC1CN1CCCCC1 (configuration not stated) | inactive

INPUT: Assay result, entry Clc1cc2ns[s+]c2cc1Cl — outcome?
OUTPUT: inactive

INPUT: Which result was noted for this compound in the test: Cc1ccccc1C1=[N+]([O-])c2ccc(Cl)cc2C1=O
OUTPUT: inactive

INPUT: In this assay, the call recorded for CN1C(=O)[C@@H]2[C@@H]3c4ccccc4N(S(=O)(=O)C(F)(F)F)[C@@H]3c3[nH]c4ccccc4c3[C@@H]2C1=O was what?
OUTPUT: inactive

INPUT: Name the outcome recorded for CCOC(=O)CNC(=O)C(CSCc1ccc(Br)cc1)NC(=O)CCC(N)C(=O)OCC (configuration not stated) in the assay.
OUTPUT: inactive

INPUT: Assay result, entry CC(=O)OC1C(O)COC(O[C@H]2CC[C@]34C[C@]35CC[C@]3(C)C([C@@]6(C)CC[C@@H](C(C)(C)O)O6)[C@@H](O)C[C@@]3(C)C5C[C@H](OC3OCC(O)C(O)C3O)[C@H]4C2(C)C)C1OC1OCC(O)C(O)C1O (some centres not stated) — outcome?
OUTPUT: inactive

INPUT: Assay result, entry Nc1c2c(nc3cc(F)c(F)cc13)CCC2 — outcome?
OUTPUT: inactive

INPUT: GET /call?item= CN1CCOC1c1ccccc1O (configuration not stated) returns the recorded outcome of this test.
OUTPUT: inactive

INPUT: # lookup: test call for CCCCCCCCC(C)C(=O)N1CCCC1C(=O)N1C(CC(=O)CC)CC(C)CC1C(=O)NC(C)C(=O)NC(C)(C)C(=O)NC(C)(C)C(=O)NC(C(=O)NC(C)C(=O)NC(C)(C)C(=O)NC(C)(C)C(=O)NC(C)CN(C)CCO)C(C)CC (configuration not stated) (X46-P[X47]A[Aib][Aib]IA[Aib][Aib]-X48; configuration not given here)
OUTPUT: active

INPUT: Tell me the assay call for Cc1cc(C)n(-c2nc3ccccc3c(=O)n2-c2ccccc2)n1 please.
OUTPUT: inactive
